# maps each entry to its inhibition at 20 µM
# target-desc: human C-terminal DNMT3A (a.a. 623-908) (Homo sapiens, UniProt Q9Y6K1)
# Construct: The human C-terminal DNMT3A (a.a. 623-908); made in house
# Sequence (Q9Y6K1 627-912 limits assumed): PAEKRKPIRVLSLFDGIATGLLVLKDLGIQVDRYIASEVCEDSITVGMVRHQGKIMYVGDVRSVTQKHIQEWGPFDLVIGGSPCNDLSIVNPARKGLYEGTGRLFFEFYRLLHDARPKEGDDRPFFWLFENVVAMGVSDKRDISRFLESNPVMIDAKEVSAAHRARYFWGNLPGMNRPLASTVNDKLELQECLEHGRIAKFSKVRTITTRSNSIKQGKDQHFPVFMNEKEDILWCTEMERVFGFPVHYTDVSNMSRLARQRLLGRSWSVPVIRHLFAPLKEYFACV
# assay-text: DNMT3A assay (restriction-based fluorescence)
# Assay type: biochemical
# applied-conditions: compound at 20 μM
experimental-endpoint: inhibition at 20 µM (%)

INSERT INTO measurements (sample_smiles, experimental_endpoint, obs_value) VALUES
  ('O=CN(CCCNc1ccnc2ccccc12)CCCOc1ccc2c(NCCCc3ccccc3)ncnc2c1', 'inhibition at 20 µM', 27),
  ('c1ccc(CCCNc2ncnc3cc(OCCCNCCNc4ccnc5ccccc45)ccc23)cc1', 'inhibition at 20 µM', 76),
  ('c1ccc(CCCNc2ncnc3cc(OCCCNCCCCNc4ccnc5ccccc45)ccc23)cc1', 'inhibition at 20 µM', 67),
  ('c1ccc(CCCNc2ncnc3cc(OCC4CCN(CCNc5ccncc5)CC4)ccc23)cc1', 'inhibition at 20 µM', 65);

----------
# target-desc: human C-terminal DNMT3A (a.a. 623-908) (Homo sapiens)
# Construct: The human C-terminal DNMT3A (a.a. 623-908); made in house
# assay-text: DNMT3A assay (restriction-based fluorescence)
# Type: biochemical
# applied-conditions: compound at 32 μM; read-out: DNMT3A (% of inhibition) 32 μM
Examples of compounds with documented inhibition at 32 µM follow.
experimental-endpoint: inhibition at 32 µM (%)

INSERT INTO measurements (sample_smiles, experimental_endpoint, obs_value) VALUES
  ('Clc1cccc(CCNc2ncnc3cc(OCC4CCN(CCNc5ccnc6ccccc56)CC4)ccc23)c1', 'inhibition at 32 µM', 91),
  ('Clc1ccc(CCNc2ncnc3cc(OCC4CCN(CCNc5ccnc6ccccc56)CC4)ccc23)cc1', 'inhibition at 32 µM', 100),
  ('c1ccc(CCCNc2ncnc3cc(OCC4CCN(CCNc5ccncc5)CC4)ccc23)cc1', 'inhibition at 32 µM', 72),
  ('NS(=O)(=O)c1ccc(CCNc2ncnc3cc(OCC4CCN(CCNc5ccnc6ccccc56)CC4)ccc23)cc1', 'inhibition at 32 µM', 93);

----------
# target-desc: human C-terminal DNMT3A (a.a. 623-908) (Homo sapiens, UniProt Q9Y6K1)
# Construct: The human C-terminal DNMT3A (a.a. 623-908); made in house
# assay-text: DNMT3A assay (restriction-based fluorescence)
# Assay type: biochemical
# applied-conditions: compound at 32 μM; read-out: DNMT3A (% of inhibition) 32 μM
inhibition at 32 µM overview
experimental-endpoint: inhibition at 32 µM (%)

INSERT INTO results (molecule, experimental_endpoint, obs_value) VALUES
  ('c1ccc(CCNc2ncnc3cc(OCC4CCN(CCNc5ccnc6ccccc56)CC4)ccc23)cc1 [Compound O]', 'inhibition at 32 µM', 99),
  ('c1ccc(CCCNc2ncnc3cc(OCCCNCCNc4ccnc5ccccc45)ccc23)cc1 [Compound F]', 'inhibition at 32 µM', 87),
  ('Nc1ccc(CCNc2ncnc3cc(OCC4CCN(CCNc5ccnc6ccccc56)CC4)ccc23)cc1 [AH]', 'inhibition at 32 µM', 96);

----------
# key: entry, value: inhibition at 20 µM
# target-desc: human C-terminal DNMT3A (a.a. 623-908) (Homo sapiens, UniProt Q9Y6K1)
# Construct: The human C-terminal DNMT3A (a.a. 623-908); made in house
# assay-text: DNMT3A assay (restriction-based fluorescence)
# Assay type: biochemical
# applied-conditions: compound at 20 μM
experimental-endpoint: inhibition at 20 µM

INSERT INTO results (sample_smiles, obs_value) VALUES
  ('c1ccc(CCCNc2ncnc3cc(OCCCNCCCNc4ccnc5ccccc45)ccc23)cc1', '76%'),
  ('CCCNc1ncnc2cc(OCC3CCN(CCNc4ccnc5ccccc45)CC3)ccc12', '44%'),
  ('c1ccc(CCCNc2ncnc3cc(OCC4CCN(CCNc5ccnc6ccccc56)CC4)ccc23)cc1', '97%'),
  ('COCn1ccc(NCCN2CCC(COc3ccc4c(NCCCc5ccccc5)ncnc4c3)CC2)nc1=O', '40%'),
  ('Nc1ncnc2cc(OCC3CCN(CCNc4ccnc5ccccc45)CC3)ccc12', '32%');
